chromatographic logP by entry:
experiment: logP determination by HPLC (EEC Directive 79/831 Annex V.A8), LC-MS; conditions: pH 2.7, log P (pH2.7), pH 2.7, value given in the preparation text
measurement.name: chromatographic logP

> print(dat)
                                   molecule  number
1  CC(C)(C)OC(=O)N1CCC(c2nc(CSc3cccc4ccccc34)cs2)CC1 [IV-1]    5.33
2  CC(C)(C)OC(=O)N1CCC(c2nc(CI)cs2)CC1 [VI-1]    3.71
3  Cc1cc(C(F)(F)F)nn1CC(=O)N1CCC(c2nc(CSc3cccc4ccccc34)cs2)CC1 [Compound I-1]    4.33
4  CC(C)(C)OC(=O)N1CCC(c2nc(CSC3=NOC(c4ccccc4)C3)cs2)CC1 (stereo not drawn) [IV-6]    4.25
5  Cc1cc(C(F)(F)F)nn1CC(=O)N1CCC(c2nc(C[S+]([O-])c3nnnn3-c3ccccc3)cs2)CC1 (stereo not drawn) [Compound I-14]    2.69
6  Cc1cc(C(F)(F)F)nn1CC(=O)N1CCC(c2nc(C[S+]([O-])c3cccc4cccnc34)cs2)CC1 (stereo not drawn) [Compound I-12]    2.48
7  Cc1cc(C(F)(F)F)nn1CC(=O)N1CCC(c2nc(C[S+]([O-])C3CCCCC3)cs2)CC1 (stereo not drawn) [Compound I-11]    2.55
8  CC(C)(C)OC(=O)N1CCC(c2nc(CSc3nnnn3-c3ccccc3)cs2)CC1 [IV-4]    3.91
9  ClC1=NOC(c2ccccc2)C1 (stereo not drawn) [Compound X-1]    2.36
